- Test target: EGFR wildtype (WT) (Homo sapiens, UniProt P00533)
- Sequence (P00533 25-1210): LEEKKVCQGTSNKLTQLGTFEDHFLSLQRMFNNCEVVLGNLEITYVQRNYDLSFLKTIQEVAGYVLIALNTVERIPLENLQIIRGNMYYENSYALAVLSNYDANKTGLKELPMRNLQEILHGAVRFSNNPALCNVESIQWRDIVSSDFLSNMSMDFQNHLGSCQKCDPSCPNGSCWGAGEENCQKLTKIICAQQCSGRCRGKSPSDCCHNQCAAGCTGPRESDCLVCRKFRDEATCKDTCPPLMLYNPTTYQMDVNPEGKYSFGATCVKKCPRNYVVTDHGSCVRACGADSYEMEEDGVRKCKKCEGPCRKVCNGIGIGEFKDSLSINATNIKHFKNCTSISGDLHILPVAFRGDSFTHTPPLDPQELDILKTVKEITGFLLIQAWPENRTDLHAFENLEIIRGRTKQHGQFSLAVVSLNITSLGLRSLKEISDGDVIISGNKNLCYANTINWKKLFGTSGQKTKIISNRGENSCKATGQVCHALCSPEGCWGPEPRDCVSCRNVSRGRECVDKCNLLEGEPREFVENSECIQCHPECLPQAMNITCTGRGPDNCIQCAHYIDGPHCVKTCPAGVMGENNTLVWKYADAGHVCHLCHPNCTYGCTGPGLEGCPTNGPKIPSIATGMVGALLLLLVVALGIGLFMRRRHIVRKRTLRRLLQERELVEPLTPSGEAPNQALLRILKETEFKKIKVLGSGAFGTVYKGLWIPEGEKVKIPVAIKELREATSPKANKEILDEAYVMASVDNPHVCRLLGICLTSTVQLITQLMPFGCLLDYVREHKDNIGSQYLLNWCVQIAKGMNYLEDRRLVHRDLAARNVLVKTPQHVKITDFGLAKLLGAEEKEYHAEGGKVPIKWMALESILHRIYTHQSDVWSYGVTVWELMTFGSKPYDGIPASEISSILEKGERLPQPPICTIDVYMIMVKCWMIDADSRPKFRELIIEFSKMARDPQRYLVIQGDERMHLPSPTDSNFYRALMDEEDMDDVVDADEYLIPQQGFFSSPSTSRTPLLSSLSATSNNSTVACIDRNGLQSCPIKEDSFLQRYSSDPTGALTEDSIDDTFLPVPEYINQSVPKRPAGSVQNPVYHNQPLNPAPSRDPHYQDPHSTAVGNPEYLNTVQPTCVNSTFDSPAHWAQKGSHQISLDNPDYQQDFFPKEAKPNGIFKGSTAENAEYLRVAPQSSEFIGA
- Assay summary: Biochemical EGFR kinase inhibition assay (Lance Ultra TR-FRET), wildtype
- Condition context: IC50 WT (nM), 100 μM ATP
- Description: Biochemical EGFR kinase assays were conducted using Lance Ultra time-resolved fluorescence resonance energy transfer (TR-FRET) technology from Perkin-Elmer. […] Each kinase reactions were incubated at room temperature for 1 hour and then stopped by the addition of 4 μL of stop solution (10 mM EDTA). […] After 60 minutes incubation at room temperature the LANCE signal was measured on an EnVision Multilabel Reader (Perkin-Elmer). […]
Structures can show the parent of a compound that is named as a salt.
# label = rule met if IC50 < 5000 nM else rule not met

- Molecule: "CN(C)CC1(F)CCN(c2cc(Nc3ccnc(-c4cnn(S(=O)(=O)C5CC5)c4)n3)ncc2C#Cc2cnn(C)c2)CC1 [Example 293, formate]"
  Label value: "rule not met"
- Molecule: "CC(=O)N1CCC(n2cc(C#Cc3cnc(Nc4ccnc(-c5cnn(S(=O)(=O)C6CC6)c5)n4)cc3N3CCC(F)CC3)cn2)CC1"
  Label value: "rule not met"
- Molecule: "CC1OCCC1C#Cc1cnc(Nc2ccnc(-c3cnn(S(=O)(=O)C4CC4)c3)n2)cc1NC1CCC(CO)CC1 (stereo not shown)"
  Label value: "rule not met"
- Molecule: "O=S(=O)(C1CC1)n1cc(-c2nccc(Nc3cc(N4CCC5(CCCO5)CC4)c(C#Cc4cccnc4)cn3)n2)cn1"
  Label value: "rule not met"
- Molecule: "CC1(CO)CCN(c2cc(Nc3ccnc(-c4cnn(S(=O)(=O)C5CC5)c4)n3)ncc2C#Cc2ccc(CN3CCOCC3)nc2)CC1"
  Label value: "rule met"
- Molecule: "CC1(CO)CCN(c2cc(Nc3ccnc(-c4cnn(S(=O)(=O)C5CC5)c4)n3)ncc2C#CC2(O)CCCOC2)CC1 (stereo not shown)"
  Label value: "rule met"
- Molecule: "CN(C)C[C@H]1CC[C@@H](Nc2cc(Nc3ccnc(-c4cnn(S(=O)(=O)C5CC5)c4)n3)ncc2C#Cc2cnn(C(F)(F)F)c2)CC1"
  Label value: "rule not met"
- Molecule: "CC1(CO)CCN(c2cc(Nc3ccnc(-c4cnn(S(=O)(=O)C5CC5)c4)n3)ncc2C#Cc2cnn(C3COC3)c2)CC1"
  Label value: "rule met"
- Molecule: "CN1CCN(Cc2ccc(C#Cc3cnc(Nc4ccnc(-c5cnn(S(=O)(=O)C6CC6)c5)n4)cc3N3CCC(C)(CO)CC3)cc2)CC1"
  Label value: "rule met"
- Molecule: "Cn1cc(C#Cc2cnc(Nc3ccnc(-c4cnn(S(=O)(=O)C5CC5)c4)n3)cc2N2CCC(C(C)(C)CO)CC2)cn1"
  Label value: "rule not met"
- Molecule: "O=S(=O)(C1CC1)n1cc(-c2nccc(Nc3cc(N[C@H]4CC[C@@H](CO)CC4)c(C#CC4C[C@@H]5CC[C@@H]4O5)cn3)n2)cn1 (stereo partly shown)"
  Label value: "rule not met"
- Molecule: "O=S(=O)(C1CC1)n1cc(-c2nccc(Nc3cc(N4CCC(F)(CO)CC4)c(C#Cc4cnn(C5CCOCC5)c4)cn3)n2)cn1"
  Label value: "rule not met"
- Molecule: "Cn1ccc(C#Cc2cnc(Nc3ccnc(-c4cnn(S(=O)(=O)C5CC5)c4)n3)cc2N2CCC(NCCF)CC2)n1"
  Label value: "rule not met"
